- Tested on: 786-0
- assay.explanation: NCI tumour cell line growth inhibition, 48 h
Active and inactive are the calls of the source. Rule as the data show it: active = GI50 up to about 1.1 µM and inactive = higher.
test.readout: GI50

compound=CC(C)(C)OC(=O)NCC(c1c[nH]c2cc(Br)ccc12)c1c[nH]c2cc(Br)ccc12 study_target=786-0 val="18.6 µM (inactive)"
compound=CCOC(=O)NN(C(=O)OCC)C(C(=O)c1ccc(Cl)cc1)=C1NCCN1 study_target=786-0 val="> 100 µM (inactive)"

Reported GI50 for CC(C)(C)C1(COC(=O)c2ccc(N)cc2)COC1 : what is it?
73.3 µM (inactive)

Requested field: GI50. Item: O=C(O)c1ccc(S(=O)(=O)c2ccccc2)c([N+](=O)[O-])c1
> 100 µM (inactive)

Which GI50 is reported for this compound? COC(=O)C1C=CCC2CCCCC21N1CCCC1 (stereo unspecified)
> 100 µM (inactive)

So what's the measured GI50 for this one? CC1CCC(O)/C=C/C(=O)OC(C)C(O)/C=C/C(=O)O1 (stereo unspecified)
> 92.9 µM (inactive)

----------
- Test system: HOP-92
- assay.explanation: NCI tumour cell line growth inhibition, 48 h
Activity calls are given as the source filed them. Rule as the data show it: active = GI50 up to about 1.1 µM and inactive = higher.
Item-by-item account of GI50

Solved cases below.
compound="CC(C)C(NC(=O)C(Cc1ccccc1)NC(=O)[C@H]1CCC[C@H]1NC(=O)C(N)Cc1ccc(O)cc1)C(N)=O (some centres not stated)" study_target=HOP-92 test_readout=GI50 val="> 100 µM (inactive)"
compound=O=C(O)c1cc(NC2=C(Cl)C(=O)c3c(O)ccc(O)c3C2=O)ccc1O study_target=HOP-92 test_readout=GI50 val="> 10 µM (inactive)"
compound=C/N=c1\ss/c(=N\C(=S)N(C)C)n1C study_target=HOP-92 test_readout=GI50 val="> 100 µM (inactive)"
compound=O=C1NC2(CCN(CCc3ccccc3)CC2)Oc2ccccc21 study_target=HOP-92 test_readout=GI50 val="24.7 µM (inactive)"
compound=COc1ccc(CCNCCCC2c3ccccc3-c3ccccc32)cc1OC study_target=HOP-92 test_readout=GI50 val="5.71 µM (inactive)"
compound=CCC(=O)N/N=C(\C=C\c1cccc(O)c1)c1sc(Nc2ccc(C)cc2[N+](=O)[O-])nc1C study_target=HOP-92 test_readout=GI50 val="13.7 µM (inactive)"

Entry c1ccc(N/N=C2\CC(c3ccccc3)Oc3ccccc32)cc1 (configuration not stated) : reported GI50 = ?
39.1 µM (inactive)

Which GI50 is listed for COc1ccc(-c2nc(N)nc(-c3cc(C)ccc3O)c2Cl)cc1 ?
55.1 µM (inactive)

Entry Nc1c2c(nc3ccccc13)-c1ccccc1CC2 : reported GI50 = ?
8.09 µM (inactive)

For the compound shown here, CC1CCC(O)/C=C/C(=O)OC(C)C(O)/C=C/C(=O)O1 (configuration not stated) , give the reported GI50.
52.8 µM (inactive)

// GI50 lookup, key: O=C(NCC(=O)N1CCCC1C(=O)OC(=O)C1CCCN1C(=O)CNC(=O)OCc1ccccc1)OCc1ccccc1 (configuration not stated)
31 µM (inactive)

Would you kindly share the measured GI50 for COc1ccccc1Cn1c2c(c3c(C(=O)NCCN(C)C)c(O)ccc31)C(=O)c1ccccc1C2=O ?
1.17 µM (inactive)

Any idea what GI50 was measured for Cc1csc(=S)n1OC(=O)NC1CCCCC1 ?
7.89 µM (inactive)

GI50 lookup needed for Nc1ncnc2c1ncn2C=C=CCO , thanks.
> 100 µM (inactive)

Which measured GI50 value corresponds to O=C(O)c1cc(Cl)cc2c1NC1(N2)C(=O)Nc2ccccc21 (configuration not stated) ?
> 100 µM (inactive)

I am curious: what GI50 value has been reported for C(/C=N/c1ccccc1)=C(/Nc1ccccc1)C12CC3CC(CC(C3)C1)C2 ?
25.2 µM (inactive)

Could you share which GI50 value was measured for C[Si](C)(C)C(CCCCSc1ccccc1)(Sc1ccccc1)Sc1ccccc1 ?
73.6 µM (inactive)

Param item = O=S(=O)(Nc1nccs1)c1ccc([As](=O)(O)O)cc1 ; retrieve measured GI50.
> 100 µM (inactive)

Look at this compound and give its reported GI50. O=C1NC(c2cccc3ccccc23)Nc2ccc(O)cc21 (configuration not stated)
35 µM (inactive)

# GI50 lookup, item COc1ccccc1NC(=O)C(=O)Cc1cnc2ccccc2n1
> 100 µM (inactive)

Give its GI50 value. Item: CC1(C)Cc2c(c3ccccc3c3nc4c(nc23)c2c(c3ccccc34)OC(C)(C)C2)O1
> 100 µM (inactive)

Entry C=C=C(C)C(=O)N(C(C)C)C(C)C : reported GI50 = ?
> 100 µM (inactive)

----------
Items are presented alongside their recorded GI50.
- Tested on: SK-MEL-2
- assay.explanation: NCI tumour cell line growth inhibition, 48 h
Activity calls are given as the source filed them. Cut-off read from the data, not from the text of the source: active = GI50 up to about 1.1 µM and inactive = higher.

compound="COC(OC)C1OC(CO)C(n2ccc(N)nc2=O)C1O (centres undefined)" study_target=SK-MEL-2 val="> 100 µM (inactive)"

Fill in: GI50 of O=C(NCCCl)N(O)C(=O)Nc1ccccc1 is ___
> 100 µM (inactive)

----------
For HCT-15, measured GI50 is reported for the entries below.
Report only the number, with the unit µM understood.

Check out these entries, answers already filled in.
molecule="CCC[C@H](N[S+]([O-])c1ccc(C)cc1)C(C(=O)OCC)=C(c1ccccc1)c1ccccc1 (stereo partly specified)" test_readout=GI50 units_label=µM val=25.2
molecule="CCN1CCC(O)(/C=C/c2ccccc2C)C(C(=O)/C=C/c2ccccc2C)C1 (stereo unspecified)" test_readout=GI50 units_label=µM val=1.56

Fill in the blank: the reported GI50 of CSc1ccc(NC(=O)CCl)cc1 is ____.
5.97

----------
- Test system: HCT-116
- assay.explanation: NCI tumour cell line growth inhibition, 48 h
The source made the active and inactive calls. Rule as the data show it: active = GI50 up to about 1.1 µM and inactive = higher. Peptide text beside a SMILES is read from it. * marks the point of attachment. Boc = CC(C)(C)OC(=O)*; OBn = c1ccc(CO*)cc1; Bn = c1ccc(C*)cc1
test.readout: GI50

compound=COC(OC)[C@@H]1OC[C@@H](O)[C@@H]1n1cnc2c(N)ncnc21 study_target=HCT-116 val="> 100 µM (inactive)"
compound="CC(C)CC(NC(=O)C(CCC(=O)OCc1ccccc1)NC(=O)OC(C)(C)C)C(=O)NC(COCc1ccccc1)C(=O)NC(Cc1ccccc1)C(=O)O (centres undefined) (Boc-E(OBn)LS(Bn)F-OH; configuration not given here)" study_target=HCT-116 val="> 100 µM (inactive)"
compound="Cc1cc(S(=O)(=O)Nc2nc(N)nc(N3N=CCC3C)n2)c(S)cc1Cl (centres undefined)" study_target=HCT-116 val="> 10 µM (inactive)"

Could you now look at the following compound, please?
Can you look up GI50 on HCT-116 for COC(=O)C1=C(C(=O)OC)C2OC1C1C2C2(C)C(C)=C(C)C1(C)[S+]2[O-] (centres undefined) ?
6.08 µM (inactive)

----------
- System: HCT-116
- assay.explanation: NCI tumour cell line growth inhibition, 48 h
Activity calls are given as the source filed them. Cut-off read from the data, not from the text of the source: active = GI50 up to about 1.1 µM and inactive = higher.
Consider the following molecules and their measured GI50 readings.

Below, each entry is followed by its recorded GI50 result.
molecule="COc1ccc(OC)c2c3c(ccc12)C(c1ccccc1)OC3=O (centres undefined)" test_readout=GI50 val="72.9 µM (inactive)"
molecule=CCOC(=O)NC(=O)c1cn(CCOC(=O)CCCCCCCCC(=O)OCCn2cc(C(=O)NC(=O)OCC)c(=O)[nH]c2=O)c(=O)[nH]c1=O test_readout=GI50 val="> 100 µM (inactive)"
molecule=C#CCn1c(=O)c(C#N)c(O)c2cc3ccccc3nc21 test_readout=GI50 val="> 100 µM (inactive)"

Here is the next item to consider.
Fill in the recorded GI50 for this molecule, with HCT-116 as test system: CCOC(=O)NC(=O)c1cn(-c2ccc(CCOC(=O)NCCCCCCNC(=O)OCCc3ccc(-n4c(=O)[nH]cc(C(=O)NC(=O)OCC)c4=O)cc3)cc2)c(=O)[nH]c1=O
> 100 µM (inactive)

----------
- Tested on: IGROV-1
- assay.explanation: NCI tumour cell line growth inhibition, 48 h
Active and inactive are the calls of the source. No stated cut-off is given here; in the data, active = GI50 up to about 1.1 µM and inactive = higher.
test.readout: GI50

For orientation, consider the following solved cases.
compound="CC(=O)OCC(OC(C)=O)C(OC(C)=O)C(/C=N\\Nc1nc2ccccc2c(=O)[nH]1)=N\\Nc1nc2ccccc2c(=O)[nH]1 (stereo not given)" val="> 100 µM (inactive)"
compound="CSc1ncc2c(n1)C(C#N)C1Sc3ccccc3N1C2=O (stereo not given)" val="> 100 µM (inactive)"
compound="OCC(O)COCn1nncc1Cn1ncc2c(SCc3ccccc3)ncnc21 (stereo not given)" val="> 100 µM (inactive)"
compound="CC(C)c1ccc2c(c1)CCC1C(C)(CN)CCCC21C (stereo not given)" val="1.71 µM (inactive)"
compound="N=C(N)C1CN(CCc2c[nH]c3ccccc23)C(=O)NC1=O (stereo not given)" val="> 100 µM (inactive)"
compound=O=[N+]([O-])c1ccc(/C=N/Nc2nnc3c4ccccc4c4ncccc4c3n2)o1 val="> 10 µM (inactive)"
compound=CCCn1c(C23CC4CC(CC(C4)C2)C3)nc2ccc(Cl)cc2c1=O val="51.9 µM (inactive)"
compound="CCC1C(c2ccccc2O)c2cc3c(cc2OC1N1CCOCC1)OCO3 (stereo not given)" val="15.8 µM (inactive)"

Find GI50 (IGROV-1) for the entry Cn1ccc2c(C(=O)c3ccccc3)cccc2c1=O
> 100 µM (inactive)

Lab note: need GI50 with IGROV-1 for entry C/C(=N/NC(=O)c1ccccc1Nc1ccccc1C(=O)N/N=C(\C)c1ccc(C)cc1)c1ccc(C)cc1 , please look it up.
> 100 µM (inactive)

Item: CCCCCCCCCCCCCCCCCCNC(=S)N/C=C1\C(=O)Nc2ccccc2C1=O Test system: IGROV-1 Read-out: GI50 Value: ?
5.83 µM (inactive)

Please state recorded GI50 (tested on IGROV-1) of CN1c2ccc(Cl)cc2C(=O)NC1c1ccc([N+](=O)[O-])s1 (stereo not given)
15.4 µM (inactive)

I'm curious: which GI50 was measured for Cn1ccc(C(=O)NCCN(CCNC(=O)c2ccn(C)c(=O)c2O)CCNC(=O)c2ccn(C)c(=O)c2O)c(O)c1=O tested on IGROV-1?
> 100 µM (inactive)

Observed GI50 on IGROV-1 for CO/C(=N\N=C\c1ccc(OC)cc1OC)c1ccncc1 , please.
> 10 µM (inactive)

Hi! What's the reported GI50 for N/N=C(\Nc1ccccc1)SCc1ccccc1 on IGROV-1?
> 100 µM (inactive)
